Listing of recorded Papp A→B by entry.
assay.method.text: Caco-2 permeability (A-B and B-A)
Format: in vitro ADME
measurement.parameters: human, Caco-2, mean; read-out: Papp (AB), 10^−6 cm/s, Mean
quantity: Papp A→B (×10⁻⁶ cm/s)

INSERT INTO results (compound, quantity, measurement) VALUES
  ('CC(C)(C)/C(N)=N/C(=N/S(=O)(=O)c1ccc(C(F)(F)F)cc1)N1CCC(c2ccccc2)C(c2ccc(Cl)cc2)=N1 (stereo not shown) [Compound 10o]', 'Papp A→B', 2.2),
  ('C/C(N)=N\C(=N\S(=O)(=O)c1ccc(C(F)(F)F)cc1)N1CCC(c2ccccc2)C(c2ccc(Cl)cc2)=N1 (stereo not shown) [Compound 10b]', 'Papp A→B', 2.5),
  ('CC(C)C(N/C(=N/S(=O)(=O)c1ccc(C(F)(F)F)cc1)N1CCC(c2ccccc2)C(c2ccc(Cl)cc2)=N1)C(N)=O (single isomer, unassigned) [Compound 29b]', 'Papp A→B', 0.9),
  ('N/C(=N\C(=N\S(=O)(=O)c1ccc(C(F)(F)F)cc1)N1CCC(c2ccccc2)C(c2ccc(Cl)cc2)=N1)c1ccc(F)cc1F (stereo not shown) [Compound 10p]', 'Papp A→B', 1.4);

Reference for the values: patent US20250197359A1
